- tgt: T1, human BDCA2 (human, UniProt Q8WTT0 1-213)
- T1 construct: whole, on cells; also called hBDCA2; Blood dendritic cell antigen 2
- T1 sequence (looked up): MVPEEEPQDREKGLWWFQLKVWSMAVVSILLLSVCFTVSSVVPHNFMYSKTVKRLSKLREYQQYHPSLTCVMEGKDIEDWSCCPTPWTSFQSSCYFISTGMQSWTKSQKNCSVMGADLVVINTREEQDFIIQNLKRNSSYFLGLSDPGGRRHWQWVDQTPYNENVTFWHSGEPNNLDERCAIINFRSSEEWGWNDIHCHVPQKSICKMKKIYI
- assay-summary: FACS, CHOK1-humanBDCA2 cells
measurement-type: pEC50
Scale for pEC50: -log10 of concentration given in mol/L; no unit attached.

Record Hu033-15 (antibody, IgG1, V domains shown, Humanized IgG1; also called Hu033-15(BM2)) VH: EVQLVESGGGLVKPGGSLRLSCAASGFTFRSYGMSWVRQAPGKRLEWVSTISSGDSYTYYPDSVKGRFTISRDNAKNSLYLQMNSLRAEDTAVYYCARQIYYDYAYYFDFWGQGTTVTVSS VL: EIVLTQSPATLSLSPGERATLSCRASESVSFRTSHLMHWYQQKPGQAPRLLIYGASNLESGIPARFSGSGSGTDFTLTISRLEPEDFAVYYCQQSIEDPPTFGGGTKVEIK . Reported pEC50: 9.12
